biological target: WRN (BV08), human Werner helicase (Uniprot Q14191, amino acids 517-1235 with L1074F point mutation) (Homo sapiens (Human), UniProt Q14191, L1074F); assay: WRN (BV08) ADP-Glo assay; conditions: class symbols A-E, read-out: ADP-Glo_hWRN_IC50
Sequence (Q14191 other isoform, or with tags, fused parts or gaps L1074F (already in the parent)): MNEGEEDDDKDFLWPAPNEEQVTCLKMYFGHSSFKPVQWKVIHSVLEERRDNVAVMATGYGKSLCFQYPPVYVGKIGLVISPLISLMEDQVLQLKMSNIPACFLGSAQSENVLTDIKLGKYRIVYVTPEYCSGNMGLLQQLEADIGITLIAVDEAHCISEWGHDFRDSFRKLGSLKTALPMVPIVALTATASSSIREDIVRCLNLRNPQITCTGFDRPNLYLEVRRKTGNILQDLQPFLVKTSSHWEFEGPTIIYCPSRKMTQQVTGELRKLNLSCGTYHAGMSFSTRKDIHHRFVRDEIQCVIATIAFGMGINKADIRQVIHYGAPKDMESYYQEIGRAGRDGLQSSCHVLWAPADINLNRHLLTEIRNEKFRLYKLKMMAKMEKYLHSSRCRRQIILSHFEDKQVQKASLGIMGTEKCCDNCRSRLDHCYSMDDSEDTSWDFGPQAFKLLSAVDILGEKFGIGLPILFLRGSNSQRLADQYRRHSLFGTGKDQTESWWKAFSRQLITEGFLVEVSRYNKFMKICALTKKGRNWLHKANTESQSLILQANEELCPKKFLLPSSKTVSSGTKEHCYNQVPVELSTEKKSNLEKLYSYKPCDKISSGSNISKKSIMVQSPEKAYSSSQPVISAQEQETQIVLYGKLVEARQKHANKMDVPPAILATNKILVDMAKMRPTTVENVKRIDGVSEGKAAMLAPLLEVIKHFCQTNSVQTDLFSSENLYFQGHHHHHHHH
pIC50: −log10 of the molar value.
reported endpoint: pIC50

These solved cases illustrate the format of a correct answer.
Query string: pIC50 for CCc1c(N2CCN(C(=O)c3ncnc(C)c3O)CC2)c(=O)c2nc(OC)cnc2n1CC(=O)Nc1ccc(C(F)(F)F)cc1Cl ?
Result string: 7.00 to 7.30

Query string: # iterate: CCc1c(N2CCN(C(=O)c3ncnc(C)c3O)CC2)c(=O)c2nc(-n3cccn3)cnc2n1CC(=O)Nc1ccc(C(F)(F)F)cc1Cl
Result string: 7.30 to 8.30

Query string: # iterate: CCc1c(N2CCN(C(=O)c3ncnc(C)c3O)CC2)c(=O)c2nc(N3CC[C@H](O)C3)cnc2n1CC(=O)Nc1ccc(C(F)(F)F)cc1Cl
Result string: 7.30 to 8.30

Query string: # iterate: CCc1c(N2CCN(C(=O)c3ncnc(C)c3O)C[C@@H]2C)c(=O)c2nc(N(C)C)nnc2n1CC(=O)Nc1ccc(C(F)(F)F)cc1Cl
Result string: 7.30 to 8.30

Query string: # iterate: CCc1c(N2CCN(C(=O)c3ncnc(C)c3O)[C@H]3CC[C@@H]32)c(=O)c2nc(N3CC[C@@H]4C[C@@H]43)cnc2n1CC(=O)Nc1ccc(C(F)(F)F)cc1Cl (single isomer, unassigned)
Result string: ≥ 8.30

// next item, pIC50 requested
Query string: pIC50 for CCc1c(N2CCN(C(=O)c3ncnc(C)c3O)[C@@H]3CCC[C@@H]32)c(=O)c2nc(N(C)C)cnc2n1CC(=O)Nc1ccc(C(F)(F)F)cc1Cl (single isomer, unassigned) ?
Result string: 7.30 to 8.30
